Tested on: BT-549 breast
Experiment: NCI-60 one-dose screen, 48 h (100 = growth as untreated, 0 = no growth, -100 = all killed)
Details: 10 µM
Compounds without any hit were thinned out: in the full panel of roughly 83,000, 20% have a hit.
property_name: growth (%)
# unit: % | format: bare number

Solved cases below.
compound: Cc1cccc2c(Nc3ccc(NS(C)(=O)=O)cc3)c3ccc([N+](=O)[O-])cc3nc12
property_name: growth
val: 29.1

compound: CCc1nn2c(-c3ccccc3)c(-c3cc(OC)c(OC)c(OC)c3)nc2s1
property_name: growth
val: 111

compound: CC[C@@]1(C(N)=O)CC2C=CC1C2 (stereo not given in full)
property_name: growth
val: 104

compound: CC1(C)CC(OCCCC[P+](c2ccccc2)(c2ccccc2)c2ccccc2)CC(C)(C)N1O
property_name: growth
val: 17.3

Consider the record given below.
Entry under review: COc1ccc(C2C=C(c3ccc(OC)c(OC)c3)N=C3SC=CN32)c(Br)c1 (stereo not given) . Reported growth?
62.5
